Biological target: T1, polypeptide GC3pep (human)
T1 construct: also called membrane proximal polypeptide GC3pep
T1 peptide: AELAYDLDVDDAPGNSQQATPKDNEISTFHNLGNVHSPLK
Assay: ELISA, GC3pep coated, antibody 0.01 nM;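 further: bound antibody detected with an HRP-conjugated secondary antibody and TMB substrate, color reaction stopped with HCl before reading absorbance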
OBSERVATION TYPE: OD450 nm (OD450 nm)
Express it in OD450 nm; write the number only.

OD450 nm lookup needed for F1.120.16 (antibody, human IgG1, kappa, V domains shown, human-murine chimeric antibody) VH: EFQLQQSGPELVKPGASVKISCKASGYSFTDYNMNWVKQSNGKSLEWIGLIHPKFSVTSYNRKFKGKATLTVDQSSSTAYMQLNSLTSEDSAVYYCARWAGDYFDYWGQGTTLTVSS VL: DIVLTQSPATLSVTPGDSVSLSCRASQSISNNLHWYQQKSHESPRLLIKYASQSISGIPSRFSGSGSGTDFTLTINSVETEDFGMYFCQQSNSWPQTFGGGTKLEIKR , thanks.
0.04

Consider next the binder F1.92.17 (antibody, human IgG1, kappa, V domains shown, human-murine chimeric antibody) VH: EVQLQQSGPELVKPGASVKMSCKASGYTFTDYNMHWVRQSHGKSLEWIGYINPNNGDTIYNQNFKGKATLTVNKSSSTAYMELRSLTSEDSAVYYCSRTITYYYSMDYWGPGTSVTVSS VL: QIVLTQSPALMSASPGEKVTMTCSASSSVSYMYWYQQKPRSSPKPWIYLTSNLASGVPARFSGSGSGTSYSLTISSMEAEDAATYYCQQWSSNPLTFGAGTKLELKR in the same way.
0.05

Consider next the binder F1.3.9 (antibody, human IgG1, kappa, V domains shown, human-murine chimeric antibody) VH: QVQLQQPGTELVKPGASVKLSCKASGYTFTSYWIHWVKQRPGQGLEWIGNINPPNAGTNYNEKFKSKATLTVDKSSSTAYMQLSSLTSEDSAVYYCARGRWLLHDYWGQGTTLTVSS VL: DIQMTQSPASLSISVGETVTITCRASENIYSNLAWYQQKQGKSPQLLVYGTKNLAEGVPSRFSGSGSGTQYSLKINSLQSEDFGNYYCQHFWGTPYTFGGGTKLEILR in the same way.
0.05

Consider next the binder F1.115.8 (antibody, human IgG1, kappa, V domains shown, human-murine chimeric antibody) VH: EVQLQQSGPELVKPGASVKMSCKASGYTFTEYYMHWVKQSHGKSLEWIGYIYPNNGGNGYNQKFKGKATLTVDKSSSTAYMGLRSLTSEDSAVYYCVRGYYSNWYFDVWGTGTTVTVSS VL: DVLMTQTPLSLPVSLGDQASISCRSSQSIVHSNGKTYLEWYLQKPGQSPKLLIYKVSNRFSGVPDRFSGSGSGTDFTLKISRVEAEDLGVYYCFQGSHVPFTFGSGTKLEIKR in the same way.
0.04

Consider next the binder F1.9.19 (antibody, human IgG1, kappa, V domains shown, human-murine chimeric antibody) VH: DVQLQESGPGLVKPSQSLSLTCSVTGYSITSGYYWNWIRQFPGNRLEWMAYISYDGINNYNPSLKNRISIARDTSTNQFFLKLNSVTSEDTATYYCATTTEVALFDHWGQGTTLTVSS VL: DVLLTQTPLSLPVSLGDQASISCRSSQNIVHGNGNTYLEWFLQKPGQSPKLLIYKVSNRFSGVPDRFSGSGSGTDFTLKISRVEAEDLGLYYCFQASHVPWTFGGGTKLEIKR in the same way.
0.05

Where do these numbers come from? They come from patent US20260116991A1.
